testedSystem: recombinant rat MASP2 active protease (amino acids 296-685, C-terminal His Tag) (rat, UniProt Q9JJS8 296-685)
Sequence (Q9JJS8 other isoform, or with tags, fused parts or gaps limits assumed): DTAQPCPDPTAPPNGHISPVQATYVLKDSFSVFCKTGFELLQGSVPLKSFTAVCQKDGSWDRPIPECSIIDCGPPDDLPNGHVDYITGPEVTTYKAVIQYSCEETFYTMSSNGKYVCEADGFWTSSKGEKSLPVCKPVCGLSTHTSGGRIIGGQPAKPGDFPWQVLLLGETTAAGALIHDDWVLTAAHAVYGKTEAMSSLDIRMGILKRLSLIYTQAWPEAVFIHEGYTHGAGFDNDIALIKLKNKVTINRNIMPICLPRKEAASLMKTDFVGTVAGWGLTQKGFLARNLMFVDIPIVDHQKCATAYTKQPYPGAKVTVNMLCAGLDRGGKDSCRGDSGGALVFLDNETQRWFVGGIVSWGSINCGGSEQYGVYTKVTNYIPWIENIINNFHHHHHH
experimentalProtocol: cell-based or functional assay
Numbered stars: 1 amine (or outer) side, 2 acyl side, 3 side chain; on linkers, the order of the positions; unused ones are H or OH. Bridge positions count the residues as written; N and C are the ends. Square brackets hold non-standard residues; d marks the D form. Ends that are not written are not given here. Phe(2,3-F2) = (2S)-3-(2,3-difluorophenyl)-2-aminopropanoic acid, O=C([C@H](Cc1cccc(F)c1F)N[*:1])[*:2]; Ida = iminodiacetic acid, O=C(CN(CC(=O)[*:3])[*:1])[*:2]; Pro(3S,4R-methano) = O=C(O)[C@H]1NC[C@@H]2C[C@@H]21; Oic = O=C(O)[C@@H]1C[C@@H]2CCCC[C@@H]2N1; tBuAla = CC(C)(C)C[C@H](N)C(=O)O; Pen = CC(C)(S)[C@H](N)C(=O)O; PEG3 = NCCOCCOCCOCCC(=O)O; dβPro = D-beta-Proline; Sar = CNCC(=O)O
Below, each entry is listed alongside its reported rat MASP2 IC50.

binder | rat MASP2 IC50
[dβPro]ICSRS[tBuAla]PPI[Pen]IPD-OH (disulfide 3-11) [Example 481: (beta-p)-IC+SRS-((tBu)A)-PPI-(Pen)+IPD-OH] | 36 nM
[dP]ICSRSLP[Oic]I[Pen]IP[Ida]-OH (disulfide 3-11; also: HCl salt) [Example 528: pIC+SRSLP-(Oic)-I-(Pen)+IP-(Ida)-OH (HCl salt)] | 8.2 nM
[Sar]ICSRS[tBuAla]P[Pro(3S,4R-methano)]I[Pen]IPD-OH (disulfide 3-11; N-terminus assumed; SMILES CC[C@H](C)[C@H](NC(=O)CNC)C(=O)N[C@H]1CSSC(C)(C)[C@@H](C(=O)N[C@H](C(=O)N2CCC[C@H]2C(=O)N[C@@H](CC(=O)O)C(=O)O)[C@@H](C)CC)NC(=O)[C@H]([C@@H](C)CC)NC(=O)[C@@H]2[C@H]3C[C@H]3CN2C(=O)[C@@H]2CCCN2C(=O)[C@H](CC(C)(C)C)NC(=O)[C@H](CO)NC(=O)[C@H](CCCNC(=N)N)NC(=O)[C@H](CO)NC1=O) | 253 nM
[Sar]ICSRSLP[Oic]I[Pen]IP-{PEG3-NH2} (disulfide 3-11) [Example 7: ((N-Me)G)-IC+SRSLP-(Oic)-I-(Pen)+IP-(PEG2(13 atoms))-NH2] | 16 nM
[Sar]ICSRS[Phe(2,3-F2)]P[Oic]I[Pen]IP-NH2 (disulfide 3-11; N-terminus assumed; SMILES CC[C@H](C)[C@H](NC(=O)CNC)C(=O)N[C@H]1CSSC(C)(C)[C@@H](C(=O)N[C@H](C(=O)N2CCC[C@H]2C(N)=O)[C@@H](C)CC)NC(=O)[C@H]([C@@H](C)CC)NC(=O)[C@@H]2C[C@@H]3CCCC[C@@H]3N2C(=O)[C@@H]2CCCN2C(=O)[C@H](Cc2cccc(F)c2F)NC(=O)[C@H](CO)NC(=O)[C@H](CCCNC(=N)N)NC(=O)[C@H](CO)NC1=O) | 120 nM
[Sar]ICSRSLP[Oic]I[Pen]IPY-OH (disulfide 3-11; N-terminus assumed; SMILES CC[C@H](C)[C@H](NC(=O)CNC)C(=O)N[C@H]1CSSC(C)(C)[C@@H](C(=O)N[C@H](C(=O)N2CCC[C@H]2C(=O)N[C@@H](Cc2ccc(O)cc2)C(=O)O)[C@@H](C)CC)NC(=O)[C@H]([C@@H](C)CC)NC(=O)[C@@H]2C[C@@H]3CCCC[C@@H]3N2C(=O)[C@@H]2CCCN2C(=O)[C@H](CC(C)C)NC(=O)[C@H](CO)NC(=O)[C@H](CCCNC(=N)N)NC(=O)[C@H](CO)NC1=O) [Example 493: ((N-Me)G)-IC+SRSLP-(Oic)-I-(Pen)+IPY-OH] | 49 nM
[(S)‑Piperidine‑3‑Carboxylic Acid]ICSRSLP[Oic]I[Pen]IPD-OH (disulfide 3-11) [Example 489: ((S)-Piperidine-3-Carboxylic Acid)-IC+SRSLP-(Oic)-I-(Pen)+IPD-OH] | 22 nM
